biological target: UniProtKB P56817; assay: BACE1 Cell-Free Assay (fluorescence polarization, cleavage of synthetic APP substrate); type: biochemical; conditions: average of 2 determinations; values marked b: geometric mean of 3-9 determinations
Readings of IC50 for the listed molecules
Write the number in nM without appending the unit.

Guide cases for IC50, answers given:
> print(dat)
                            molecule.smiles  experimental.value
1  Cn1cc([C@H]2C[C@H]3CSC(N)=N[C@@]3(c3ccc(F)cc3F)CO2)ccc1=O                 119
2  Cc1ncc([C@H]2C[C@H]3CSC(N)=N[C@@]3(c3ccc(F)cc3F)CO2)cn1                1400
3  Cc1cc([C@H]2C[C@H]3[C@@H](CF)SC(N)=N[C@@]3(c3ccc(F)cc3F)CO2)on1                54.8

Alright, here's another molecule for you.
Query block: What value of measured IC50 is listed for NC1=N[C@@]2(c3ccc(F)cc3F)CO[C@@H](c3nc4cnccc4o3)C[C@H]2CS1 ?
Result block: 240

====

Readings of log10 IC50 for the listed compounds
target: BACE1 enzyme (Homo sapiens (Human), UniProt P56817)
Sequence (P56817 46-457): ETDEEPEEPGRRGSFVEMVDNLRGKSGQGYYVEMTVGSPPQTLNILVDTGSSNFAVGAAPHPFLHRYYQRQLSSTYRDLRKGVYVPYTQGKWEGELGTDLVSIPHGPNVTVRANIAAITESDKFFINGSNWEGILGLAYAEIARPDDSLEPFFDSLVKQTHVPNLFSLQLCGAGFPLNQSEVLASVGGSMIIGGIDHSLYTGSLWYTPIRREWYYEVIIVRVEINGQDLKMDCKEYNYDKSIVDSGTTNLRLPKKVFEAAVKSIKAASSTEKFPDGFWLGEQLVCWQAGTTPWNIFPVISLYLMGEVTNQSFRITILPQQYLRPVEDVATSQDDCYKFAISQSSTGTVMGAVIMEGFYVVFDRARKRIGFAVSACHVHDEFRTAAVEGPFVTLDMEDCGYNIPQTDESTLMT
Recorded IC50 (log10, nM)

Query block: Hi! What's the reported log10 IC50 for Cc1cnc([C@H]2C[C@H]3CSC(N)=N[C@@]3(c3ccc(F)cc3F)CO2)cn1 on BACE1 enzyme (Homo sapiens (Human), UniProt P56817)?
Result block: 2.59

Query block: Input Cn1nc([C@H]2C[C@H]3CSC(N)=N[C@@]3(c3ccc(F)cc3F)CO2)cc1F
Result block: 1.92

Query block: Input Cc1cc([C@H]2C[C@H]3[C@@H](C)SC(N)=N[C@@]3(c3ccc(F)cc3F)CO2)on1
Result block: 1.88

====

molecular target: BACE1 enzyme (Homo sapiens (Human), UniProt P56817)
REPORTED_METRIC: IC50 (nM)
Write the number in nM without appending the unit.

Guide cases for IC50, answers given:
> print(dat)
                                   molecule                              study.system  reported.metric  experimental.value
1  NC1=N[C@@]2(c3ccc(F)cc3F)CO[C@@H](c3nc(C(F)F)co3)C[C@H]2CS1 [Example 14]  BACE1 enzyme (Homo sapiens (Human), UniProt P56817)             IC50                 231
2  NC1=N[C@@]2(c3ccc(F)cc3F)CO[C@@H](c3ccc(F)cn3)C[C@H]2CS1 [Example 2]  BACE1 enzyme (Homo sapiens (Human), UniProt P56817)             IC50                 233
3  COc1cnc([C@H]2C[C@H]3CSC(N)=N[C@@]3(c3ccc(F)cc3F)CO2)nc1 [Example 11]  BACE1 enzyme (Homo sapiens (Human), UniProt P56817)             IC50                 343
4  COc1cncc([C@H]2C[C@H]3CSC(N)=N[C@@]3(c3ccc(F)cc3F)CO2)c1 [Example 26]  BACE1 enzyme (Homo sapiens (Human), UniProt P56817)             IC50                1250

Query block: What value of measured IC50 is listed for Cn1ncc([C@H]2C[C@H]3CSC(N)=N[C@@]3(c3ccc(F)cc3F)CO2)n1 [Example 12] ?
Result block: 466
